Test system: CEM cells HIV-1 protection, formazan growth assay
assay.info: NCI AIDS Antiviral Assay
condition.info: measured here: growth of uninfected CEM cells
observation.type: pIC50
Lab note: report pIC50 as minus log10 of the concentration in molar units, number only.

# value of pIC50, CEM cells HIV-1 protection, formazan growth assay, item CCN(CC)C(=S)[S-].CCN(CC)C(=S)[S-].O=C(O)CC([S-])C(=O)O.[Fe+3] (stereo not drawn) = 4.41

# value of pIC50, CEM cells HIV-1 protection, formazan growth assay, item `CN(NC(=O)/C(=C/c1cc(Cl)cc(Cl)c1O)NC(=O)c1ccccc1)c1cnn(-c2ccccc2)c(=O)c1Cl` = 4.43

# value of pIC50, CEM cells HIV-1 protection, formazan growth assay, item O=S(=O)(c1ccccc1)C1CC(c2nc3ccccc3[nH]2)=NO1 (stereo not drawn) = 3.88

# value of pIC50, CEM cells HIV-1 protection, formazan growth assay, item `CCCCC(=O)N1SC(NC(=O)OC)=Nc2ccccc21` = 5.17

# value of pIC50, CEM cells HIV-1 protection, formazan growth assay, item `Nc1ccc(-c2nc3ccccc3s2)cc1S(=O)(=O)O` = 4.22

----------
Test system: CEM cells HIV-1 protection, formazan growth assay
assay.info: NCI AIDS Antiviral Assay
observation.type: EC50

Study these solved cases before continuing.
{"molecule": "CC(=O)OCC1C(C(C)OC(C)=O)CCC2C1CCC1(C)C(OC(C)=O)CCC21 (stereo unspecified)", "target.or.test.system": "CEM cells HIV-1 protection, formazan growth assay", "EC50": "> 20.4 µM"}
{"molecule": "COC(=O)N1C=NC2C3(C)C(C)=C(C)C3(C)C21C (stereo unspecified)", "target.or.test.system": "CEM cells HIV-1 protection, formazan growth assay", "EC50": "> 263 µM"}
{"molecule": "CC(=O)OC1=C(c2ccccc2)c2ccccc2OC1", "target.or.test.system": "CEM cells HIV-1 protection, formazan growth assay", "EC50": "> 26.9 µM"}
{"molecule": "CCc1nc(N)c2nc(-c3ccc(C#N)cc3)oc2n1", "target.or.test.system": "CEM cells HIV-1 protection, formazan growth assay", "EC50": "> 100 µM"}
{"molecule": "CN(O)C(=O)c1ccc(OCc2cccc(Cl)c2)cc1", "target.or.test.system": "CEM cells HIV-1 protection, formazan growth assay", "EC50": "> 200 µM"}

# value of EC50, CEM cells HIV-1 protection, formazan growth assay, item COC1(C)OC23C(=O)N(C)C(=O)N(C)C2(O1)N(C(C)=O)C(=O)N3C (stereo unspecified) = > 200 µM

# value of EC50, CEM cells HIV-1 protection, formazan growth assay, item CC(=O)Nc1ccc(C(=O)NN2C(=O)C(Cl)C2/C=C/c2ccccc2)cc1 (stereo unspecified) = 135 µM

----------
Test system: CEM cells HIV-1 protection, formazan growth assay
assay.info: NCI AIDS Antiviral Assay
condition.info: measured here: growth of uninfected CEM cells
pIC50: −log10 of the molar value.
Decide by pIC50: equal to or exceeding 4 means Y, less means N.

These solved cases illustrate the format of a correct answer.
{"molecule": "O=C1CC[C@H]2CO[C@H](c3ccccc3)N12", "label.class": "N"}
{"molecule": "CC(C)(C)C1=C(Br)C(OC(=O)C(F)(F)F)(C(C)(C)C)OP1(=O)c1ccccc1 (stereo not given)", "label.class": "Y"}
{"molecule": "N#CCCN(c1ccc(/C=C2\\N=C(Cc3ccccc3)OC2=O)cc1)S(=O)(=O)c1ccccc1", "label.class": "N"}
{"molecule": "CCNc1nnc(CSc2nc(-c3ccccc3)c(-c3ccccc3)[nH]2)s1", "label.class": "Y"}
{"molecule": "CCOC(=O)Cn1c(=O)n(C)c(=O)c2[nH]cnc21", "label.class": "N"}
{"molecule": "CN(CC#N)C(=O)Cc1ccc([N+](=O)[O-])cc1", "label.class": "N"}
{"molecule": "CC1(O)C(=O)N(Cc2ccccc2)c2ccccc21 (stereo not given)", "label.class": "N"}

Please look at the following molecule next.
Can `O=C(Oc1cccc2cccnc12)c1ccccc1` be said to have pIC50 at or above 4?
Y
